System: Mesenteric artery
assay.comment: Vasodilating activity against U46619-induced contractions in Wistar rat endothelium intact main mesenteric artery assessed as increase in sensitivity relative to scopoletin
Type: functional
Listed compounds paired with reported fold change (FC)

| chemical.smiles | system | fold change (FC) |
| --- | --- | --- |
| CCCCCN(C)C(=O)CCCOc1cc2ccc(=O)oc2c2c1OC(C)(C)C=C2 | Mesenteric artery | 34.67 |
| CCCCN(C)C(=O)CCCCOc1cc2ccc(=O)oc2c2c1OC(C)(C)C=C2 | Mesenteric artery | 52.83 |
| CCCCCN(C)C(=O)CCCCOc1cc2ccc(=O)oc2c2c1OC(C)(C)C=C2 | Mesenteric artery | 22.31 |
| COc1cc2ccc(=O)oc2c2c1OC(C)(C)C=C2 | Mesenteric artery | 70.89 |
| CCCCCN(C)C(=O)COc1cc2ccc(=O)oc2c2c1OC(C)(C)C=C2 | Mesenteric artery | 29.4 |
| CCCCN(C)C(=O)COc1cc2ccc(=O)oc2c2c1OC(C)(C)C=C2 | Mesenteric artery | 42.11 |
